- METHOD_DESCRIPTION: qHTS profiling of the MIPE4 collection as inhibitors of Plasmodium falciparum (DD2) proliferation (AID 743345)
- CONDITIONS: P. falciparum Dd2 in erythrocytes, SYBR Green DNA, 72 h; at 28.5 µM (top of the series) unless noted
Rule: parasite growth remaining, % of DMSO control (lower = more inhibition) below 40% gives y, anything at or above gives n.

State whether 40% exceeds parasite growth remaining, % of DMSO control (lower = more inhibition) recorded for COC[C@H](NC(=O)c1cnc(C)s1)C(=O)N[C@@H](COC)C(=O)N[C@@H](Cc1ccccc1)C(=O)[C@@]1(C)CO1 .
y

State whether 40% exceeds parasite growth remaining, % of DMSO control (lower = more inhibition) recorded for C=CC(=O)N1CCc2ccc(-n3c(=O)ccc4cnc5ccc(-c6cnn(C)c6)cc5c43)cc21 .
y

State whether 40% exceeds parasite growth remaining, % of DMSO control (lower = more inhibition) recorded for CN1CCc2c(c3ccccc3n2Cc2ccc(C(=O)NO)cc2)C1 .
y

State whether 40% exceeds parasite growth remaining, % of DMSO control (lower = more inhibition) recorded for Cc1[nH]c(C=C2C(=O)Nc3ccccc32)c(C)c1CCC(=O)O .
n

State whether 40% exceeds parasite growth remaining, % of DMSO control (lower = more inhibition) recorded for CN(CC(=O)N(Cc1ccc(C2CCCCC2)cc1)c1ccc(C(=O)O)c(O)c1)S(=O)(=O)c1c(F)c(F)c(F)c(F)c1F .
n

State whether 40% exceeds parasite growth remaining, % of DMSO control (lower = more inhibition) recorded for Nc1ccc(C(=O)Nc2cccc(-c3nc(N4CCOCC4)c4oc5ncccc5c4n3)c2)cn1 .
y

State whether 40% exceeds parasite growth remaining, % of DMSO control (lower = more inhibition) recorded for CCN(C(=O)c1c(O)c2c(Cl)cccc2n(C)c1=O)c1ccccc1 .
n

State whether 40% exceeds parasite growth remaining, % of DMSO control (lower = more inhibition) recorded for COc1ccc2cc([S+]([O-])Cc3ncc(C)c(OC)c3C)nc2c1 .
n
